Method: Static equilibrium solubility of HCQS in supercritical carbon dioxide (UV-vis spectrophotometer)
Type: physicochemical
Run Parameters: thermodynamic from solid, scCO2, 318 K, 240 bar; read-out: Equilibrium solubility, S
Experimental: SCF-solubility of the drugs was experimentally measured via two broad classes of saturated solution-based methods, where solubility measurement can be done either (1) statically or (2) dynamically. […] The solubilities were measured with the help of an equilibrium cell. Thermodynamically, the method employed may be regarded as an isobaric-isothermal method. […]
Structures can show the parent of a compound that is named as a salt.
Measured Metric: solubility thermodynamic at 1 h

Inquiry: Please give the measured solubility thermodynamic at 1 h for this compound: CCN(CCO)CCCC(C)Nc1ccnc2cc(Cl)ccc12 (stereo not shown) [HCQS, Hydroxychloroquine sulfate]
Reply text: 210 µg/mL
